Sourced from paper PMC8405091

System: panel of human adherent cancer cell lines
Assay: MTT antiproliferative assay, whole panel of cell lines
Assay type: cell-based
Details: read-out: IC50 (span over the panel)
pIC50: −log10 of the molar value.
Answer each item with its documented pIC50.

pIC50 for C[C@@]12CC[C@@H]3c4ccc(OCc5ccccc5)cc4CC[C@H]3[C@@H]1C[C@H](CP(=O)(c1ccccc1)c1ccccc1)C2=O [Compound 12] is 4.53 to 4.87

What the record says about COc1ccc2c(c1)CC[C@@H]1[C@@H]2CC[C@@]2(C)C(=O)[C@@H](CP(=O)(c3ccc(C)cc3)c3ccc(C)cc3)C[C@@H]12 [Compound 14] : pIC50 is 4.60 to 5.00

Entry COc1ccc2c(c1)CC[C@@H]1[C@@H]2CC[C@@]2(C)C(=O)[C@H](CP(=O)(c3ccc(C)cc3)c3ccc(C)cc3)C[C@@H]12 [Compound 13] , pIC50 reported as 4.60 to 5.00

---

Tested on: T47D cells
Test: MTT antiproliferative assay, T47D
Type: cell-based, human
Conditions: Homo sapiens, 72 h, read-out: Growth inhibition, % ± SEM, 30 μM
I would appreciate it if you labelled entries YES when inhibition at 30 µM is 60% or higher, otherwise NO.

Prompt: Say whether Cc1ccc(P(=O)(C[C@H]2C[C@H]3[C@@H]4CCc5cc(OCc6ccccc6)ccc5[C@H]4CC[C@@]3(C)C2=O)c2ccc(C)cc2)cc1 shows inhibition at 30 µM of 60% or more.
Completion: YES

Prompt: Has COc1ccc2c(c1)CCC1C2CCC2(C)C(=O)C(CP(=O)(c3ccc4ccccc4c3)c3ccc4ccccc4c3)CC12 (stereo not drawn) a recorded inhibition at 30 µM greater than or equal to 60%?
Completion: NO

Prompt: Reported inhibition at 30 µM reaches at least 60% for COc1ccc2c(c1)CC[C@@H]1[C@@H]2CC[C@@]2(C)C(=O)[C@H](CP(=O)(c3ccc(C)cc3)c3ccc(C)cc3)C[C@@H]12 ?
Completion: YES

Prompt: Could you please find out whether C[C@@]12CC[C@@H]3c4ccc(OCc5ccccc5)cc4CC[C@H]3[C@@H]1C[C@H](CP(=O)(c1ccccc1)c1ccccc1)C2=O has inhibition at 30 µM that meets 60% or exceeds it?
Completion: YES

---

Tested on: MDA-MB-231 cells
Assay: MTT antiproliferative assay, MDA-MB-231
Format: cell-based, human
Details: Homo sapiens, MDA-MB-231, 72 h, read-out: Growth inhibition; % ± SEM
Protocol: The antiproliferative properties of the newly synthesized compounds (9–20) and their starting materials (4 and 5) were determined on a panel of human adherent cancer cell lines. MCF-7, MDA-MB-231 and T47D were isolated from breast cancers differing in biochemical background, while A2780 cells were isolated from ovarian cancer. HeLa and SiHa are cervical cancer cell lines positive for HPV-18 and HPV-16, respectively, while C33-A cervical cancer cells are negative for HPV. […]
measuredProperty: inhibition at 10 µM

The compound identified as COc1ccc2c(c1)CCC1C2CCC2(C)C(=O)C(CP(=O)(c3ccc4ccccc4c3)c3ccc4ccccc4c3)CC12 (stereo not shown) [Compound 17] registered its inhibition at 10 µM at < 20%

// field: inhibition at 10 µM; key: C[C@@]12CC[C@@H]3c4ccc(OCc5ccccc5)cc4CC[C@H]3[C@@H]1C[C@H](CP(=O)(c1ccccc1)c1ccccc1)C2=O [Compound 12] ; value = < 20%

The recorded inhibition at 10 µM for COc1ccc2c(c1)CC[C@@H]1[C@@H]2CC[C@@]2(C)C(=O)[C@H](CP(=O)(c3ccc(C)cc3)c3ccc(C)cc3)C[C@@H]12 [Compound 13] is < 20%

Per the record, Cc1ccc(P(=O)(C[C@H]2C[C@H]3[C@@H]4CCc5cc(OCc6ccccc6)ccc5[C@H]4CC[C@@]3(C)C2=O)c2ccc(C)cc2)cc1 [Compound 16] has inhibition at 10 µM of < 20%

---

Test system: T47D cells
Assay: MTT antiproliferative assay, T47D
Assay type: cell-based, human
Conditions: Homo sapiens, 72 h, read-out: Growth inhibition, % ± SEM, 30 μM
measuredProperty: inhibition at 30 µM (%)
Numeric answer only, unit % assumed.

Record COc1ccc2c(c1)CC[C@@H]1[C@@H]2CC[C@@]2(C)C(=O)[C@@H](CP(=O)(c3ccc(C)cc3)c3ccc(C)cc3)C[C@@H]12 , field inhibition at 30 µM: 86

Form field inhibition at 30 µM, entry C[C@@]12CC[C@@H]3c4ccc(OCc5ccccc5)cc4CC[C@H]3[C@@H]1C[C@@H](CP(=O)(c1ccccc1)c1ccccc1)C2=O : 59

The measured inhibition at 30 µM associated with COc1ccc2c(c1)CC[C@@H]1[C@@H]2CC[C@@]2(C)C(=O)[C@H](CP(=O)(c3ccccc3)c3ccccc3)C[C@@H]12 reads 93.8

inhibition at 30 µM in this record for CC12CCC3c4ccc(OCc5ccccc5)cc4CCC3C1CC(CP(=O)(c1ccc3ccccc3c1)c1ccc3ccccc3c1)C2=O (stereo not shown) : 62.4

---

Test system: UPCI-SCC-131 cells
Experiment: MTT antiproliferative assay, UPCI-SCC-131
Format: cell-based, human
Conditions: Homo sapiens, 72 h, read-out: calculated IC50 value
For each of the compounds below, state its IC50.

Given item COc1ccc2c(c1)CC[C@@H]1[C@@H]2CC[C@@]2(C)C(=O)[C@H](CP(=O)(c3ccccc3)c3ccccc3)C[C@@H]12 [Compound 9] , the value recorded as its IC50 is 5.3 µM

Value of measured IC50 for the entry COc1ccc2c(c1)CC[C@@H]1[C@@H]2CC[C@@]2(C)C(=O)[C@H](CP(=O)(c3ccc(C)cc3)c3ccc(C)cc3)C[C@@H]12 [Compound 13] : 12.3 µM

Consider C[C@@]12CC[C@@H]3c4ccc(OCc5ccccc5)cc4CC[C@H]3[C@@H]1C[C@H](CP(=O)(c1ccccc1)c1ccccc1)C2=O [Compound 12] . Its measured IC50 is 14.2 µM

Measured IC50, COc1ccc2c(c1)CC[C@@H]1[C@@H]2CC[C@@]2(C)C(=O)[C@@H](CP(=O)(c3ccc(C)cc3)c3ccc(C)cc3)C[C@@H]12 [Compound 14] : 10.9 µM

---

Tested on: UPCI-SCC-131 cells
Assay: MTT antiproliferative assay, UPCI-SCC-131
Format: cell-based, human
Conditions: Homo sapiens, 72 h, read-out: Growth inhibition; % ± SEM, UPCI-SCC-131, 30 μM, 72 h
Assignment: determine reported inhibition at 30 µM for the given molecules.
# unit: % | format: bare number

Form field inhibition at 30 µM, entry C[C@@]12CC[C@@H]3c4ccc(OCc5ccccc5)cc4CC[C@H]3[C@@H]1C[C@H](CP(=O)(c1ccccc1)c1ccccc1)C2=O [Compound 12] : 90

COc1ccc2c(c1)CC[C@@H]1[C@@H]2CC[C@@]2(C)C(=O)[C@H](CP(=O)(c3ccc(C)cc3)c3ccc(C)cc3)C[C@@H]12 [Compound 13] yielded inhibition at 30 µM of 97

Per the record, COc1ccc2c(c1)CCC1C2CCC2(C)C(=O)C(CP(=O)(c3ccc4ccccc4c3)c3ccc4ccccc4c3)CC12 (stereo not drawn) [Compound 17] has inhibition at 30 µM of 45.3

---

Tested on: A2780 cells
Test: MTT antiproliferative assay, A2780
Assay type: cell-based, human
Conditions: Homo sapiens, A2780, 72 h; read-out: calculated IC50 value
measuredProperty: IC50 (µM)
Could you give me the number in µM? Just the number is fine.

# IC50 measured on A2780 cells for item C=C1C[C@H]2[C@@H]3CCc4cc(OC)ccc4[C@H]3CC[C@@]2(C)C1=O = 6.24

Tested on A2780 cells, the item C=C1C[C@H]2[C@@H]3CCc4cc(OCc5ccccc5)ccc4[C@H]3CC[C@@]2(C)C1=O showed IC50 equal to 6.7

---

System: SiHa cells
Test: MTT antiproliferative assay, SiHa
Format: cell-based, human
Details: 30 μM, 72 h
So I've got a bunch of molecules here, and I need their Growth inhibition; % ± SEM values.

The value of Growth inhibition; % ± SEM measured for the molecule N.N.[Cl][Pt][Cl] [CIS, Cisplatin, reference compound] turned out to be 90.18 ± 1.78%

Recorded result, CC12CCC3c4ccc(OCc5ccccc5)cc4CCC3C1CC(CP(=O)(c1ccc3ccccc3c1)c1ccc3ccccc3c1)C2=O (stereo not shown) [Compound 19] , Growth inhibition; % ± SEM: 40.30 ± 2.00%

---

System: UPCI-SCC-131 cells
Assay: MTT antiproliferative assay, UPCI-SCC-131
Format: cell-based, human
Conditions: UPCI-SCC-131, 72 h; read-out: calculated IC50 value
measuredProperty: IC50 (nM)
Value expressed in nM; do not type the unit.

Sample N.N.[Cl][Pt][Cl] [CIS, Cisplatin, reference compound] ; IC50 observed: 1220

---

Tested on: MCF-7 cells
Assay: MTT antiproliferative assay, MCF-7
Format: cell-based, human
Conditions: MCF-7, 72 h; read-out: calculated IC50 value
measuredProperty: IC50 (µM)
Please state the figure in µM; there is no need to write the unit.

Given item N.N.[Cl][Pt][Cl] [CIS, Cisplatin, reference compound] , the value recorded as its IC50 is 5.78
